target: mu opioid receptor (Rattus norvegicus); construct: from tissue; host or cells: forebrain of male Wistar rats (particulate membrane preparation); experiment: Rat Brain Mu Opioid Receptor Binding Assay; settings: rat forebrain membranes; [3H]DAMGO, 25° C., 2.5 h; read-out: mu (Ki)
Sequence (P33535 whole entry): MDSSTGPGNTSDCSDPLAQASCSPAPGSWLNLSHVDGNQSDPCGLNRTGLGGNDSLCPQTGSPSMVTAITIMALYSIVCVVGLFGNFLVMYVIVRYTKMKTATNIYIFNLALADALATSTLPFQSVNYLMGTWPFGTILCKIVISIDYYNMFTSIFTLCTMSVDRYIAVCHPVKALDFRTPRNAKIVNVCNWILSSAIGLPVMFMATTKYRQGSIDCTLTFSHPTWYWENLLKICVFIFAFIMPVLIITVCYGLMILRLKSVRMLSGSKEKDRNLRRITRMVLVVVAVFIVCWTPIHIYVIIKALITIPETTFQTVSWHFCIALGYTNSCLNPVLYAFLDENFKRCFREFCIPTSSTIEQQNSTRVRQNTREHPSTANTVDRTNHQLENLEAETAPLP
pKi: −log10 of the molar value.
Here the recorded pKi is given for each entry.

# compound, targetOrTestSystem, operator, pKi
measured = [
    ("c1ccc2c(c1)Oc1cc(-c3ccncc3)ccc1C2C1CCNCC1 (centres unmarked)", "mu opioid receptor (Rattus norvegicus)", "<", 5.00),
    ("O=C(c1ccc2c(c1)Oc1ccccc1C2C1CCN(Cc2ccoc2)CC1)N1CC[C@H](O)C1 (some centres unmarked)", "mu opioid receptor (Rattus norvegicus)", "<", 5.00),
    ("COc1cccc2c1Oc1cc(-c3ccncc3)ccc1C2C1CCNCC1 (centres unmarked)", "mu opioid receptor (Rattus norvegicus)", "<", 5.00),
    ("c1ccc(CCN2CCC(C3c4ccccc4Oc4cc(-c5cccnc5)ccc43)CC2)cc1 (centres unmarked)", "mu opioid receptor (Rattus norvegicus)", "=", 6.04),
    ("CC(=O)Nc1ccccc1-c1ccc2c(c1)Oc1ccccc1C2C1CCN(Cc2ccoc2)CC1 (centres unmarked)", "mu opioid receptor (Rattus norvegicus)", "=", 5.35),
    ("CCN(CC)C(=O)c1ccc2c(c1)Oc1ccccc1C2C1CCN(CC2CC2)CC1 (centres unmarked) [14a]", "mu opioid receptor (Rattus norvegicus)", "=", 5.16),
    ("CC(=O)Nc1ccccc1-c1ccc2c(c1)Oc1ccccc1C2C1CCN(CCc2ccccc2)CC1 (centres unmarked)", "mu opioid receptor (Rattus norvegicus)", "=", 6.00),
    ("CCN(CC)C(=O)c1ccc2c(c1)Oc1ccccc1C2C1CCNCC1 (centres unmarked)", "mu opioid receptor (Rattus norvegicus)", "=", 5.06),
    ("c1cncc(-c2ccc3c(c2)Oc2ccccc2C3C2CCN(Cc3ccoc3)CC2)c1 (centres unmarked)", "mu opioid receptor (Rattus norvegicus)", "=", 5.50),
    ("O=C(c1ccc2c(c1)Oc1ccccc1C2C1CCNCC1)N1CC[C@H](O)C1 (some centres unmarked)", "mu opioid receptor (Rattus norvegicus)", "<", 5.00),
    ("CC(=O)Nc1ccccc1-c1ccc2c(c1)Oc1ccccc1C2C1CCN(Cc2ccccn2)CC1 (centres unmarked)", "mu opioid receptor (Rattus norvegicus)", "=", 5.16),
    ("c1ccc2c(c1)Oc1cc(-c3nnn[nH]3)ccc1C2C1CCNCC1 (centres unmarked)", "mu opioid receptor (Rattus norvegicus)", "<", 5.00),
    ("CCN(CC)C(=O)c1ccc2c(c1)Oc1c(OC)cccc1C2C1CCNCC1 (centres unmarked)", "mu opioid receptor (Rattus norvegicus)", "<", 5.00),
    ("CC(=O)Nc1ccccc1-c1ccc2c(c1)Oc1c(O)cccc1C2C1CCNCC1 (centres unmarked)", "mu opioid receptor (Rattus norvegicus)", "=", 6.54),
    ("CCN(CC)C(=O)c1cccc(-c2ccc3c(c2)Oc2c(O)cccc2C3C2CCNCC2)c1 (centres unmarked)", "mu opioid receptor (Rattus norvegicus)", "=", 6.27),
    ("CC(=O)Nc1ccccc1-c1ccc2c(c1)Oc1ccccc1C2C1CCNCC1 (centres unmarked)", "mu opioid receptor (Rattus norvegicus)", "<", 5.00),
    ("c1ccc2c(c1)Oc1cc(-c3nnn[nH]3)ccc1C2C1CCN(Cc2ccoc2)CC1 (centres unmarked)", "mu opioid receptor (Rattus norvegicus)", "=", 5.20),
    ("COc1cccc2c1Oc1cc(-c3cccnc3)ccc1C2C1CCNCC1 (centres unmarked)", "mu opioid receptor (Rattus norvegicus)", "<", 5.00),
    ("CCN(CC)C(=O)c1ccc2c(c1)Oc1c(Cl)cccc1C2C1CCNCC1 (centres unmarked)", "mu opioid receptor (Rattus norvegicus)", "=", 5.24),
    ("c1cncc(-c2ccc3c(c2)Oc2ccccc2C3C2CCNCC2)c1 (centres unmarked)", "mu opioid receptor (Rattus norvegicus)", "=", 6.00),
]
